target: NMDAR2B expressing HEK cell membranes (Homo sapiens, UniProt Q05586+Q13224); construct: expressed in transfected cells; host or cells: HEK cells (membrane extract); experiment: NMDAR agonist assay, [3H]MK-801 binding, NMDAR2B; format: biochemical; details: 50 μM glutamate; [3H]MK-801 binding; read-out: NMDAR2B log EC50 (converted)
Sequence (Q13224 27-1484, other chains not shown): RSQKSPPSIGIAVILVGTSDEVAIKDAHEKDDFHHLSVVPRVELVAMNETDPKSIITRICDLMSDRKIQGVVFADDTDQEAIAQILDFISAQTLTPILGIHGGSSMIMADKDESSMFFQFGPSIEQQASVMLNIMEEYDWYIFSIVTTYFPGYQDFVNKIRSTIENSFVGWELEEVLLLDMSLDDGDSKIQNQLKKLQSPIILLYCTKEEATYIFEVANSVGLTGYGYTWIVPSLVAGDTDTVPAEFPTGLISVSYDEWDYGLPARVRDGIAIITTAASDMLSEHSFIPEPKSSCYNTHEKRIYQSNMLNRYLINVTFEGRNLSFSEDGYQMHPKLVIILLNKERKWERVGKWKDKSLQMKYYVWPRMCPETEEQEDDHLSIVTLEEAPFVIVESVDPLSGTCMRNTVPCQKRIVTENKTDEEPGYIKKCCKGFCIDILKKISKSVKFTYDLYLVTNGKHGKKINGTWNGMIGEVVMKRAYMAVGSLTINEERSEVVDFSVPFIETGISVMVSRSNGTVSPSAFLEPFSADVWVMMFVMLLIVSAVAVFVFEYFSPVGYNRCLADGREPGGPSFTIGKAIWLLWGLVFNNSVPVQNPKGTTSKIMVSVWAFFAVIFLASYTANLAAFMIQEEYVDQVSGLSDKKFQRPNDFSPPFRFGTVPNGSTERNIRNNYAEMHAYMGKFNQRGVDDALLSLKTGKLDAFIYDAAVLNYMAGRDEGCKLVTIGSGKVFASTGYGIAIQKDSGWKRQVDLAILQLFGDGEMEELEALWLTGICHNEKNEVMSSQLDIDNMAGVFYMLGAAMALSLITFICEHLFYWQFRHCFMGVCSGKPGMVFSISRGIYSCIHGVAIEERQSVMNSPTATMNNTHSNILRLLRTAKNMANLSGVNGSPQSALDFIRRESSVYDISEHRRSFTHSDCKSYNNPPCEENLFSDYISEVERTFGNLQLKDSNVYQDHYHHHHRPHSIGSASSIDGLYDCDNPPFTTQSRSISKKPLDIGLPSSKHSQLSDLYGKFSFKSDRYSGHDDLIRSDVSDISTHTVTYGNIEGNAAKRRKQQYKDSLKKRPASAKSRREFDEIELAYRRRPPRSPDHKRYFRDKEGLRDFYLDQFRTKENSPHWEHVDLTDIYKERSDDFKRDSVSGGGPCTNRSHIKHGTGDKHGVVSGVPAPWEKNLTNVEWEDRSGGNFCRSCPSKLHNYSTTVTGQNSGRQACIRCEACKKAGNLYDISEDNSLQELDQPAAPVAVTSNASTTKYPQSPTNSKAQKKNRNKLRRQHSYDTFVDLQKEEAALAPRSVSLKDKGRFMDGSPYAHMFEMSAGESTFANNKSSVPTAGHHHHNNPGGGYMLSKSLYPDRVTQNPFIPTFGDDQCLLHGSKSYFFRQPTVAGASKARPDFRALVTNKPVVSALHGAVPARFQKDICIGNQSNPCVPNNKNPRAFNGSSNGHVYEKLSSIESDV
Measured EC50 by item

Some entries whose results are on file:
C[C@@H](O)[C@H](NC(=O)C1CCC2(CNC2=O)N1Cc1ccccc1)C(N)=O (single isomer, unassigned) [AL-2] ... > 100 nM
CC(C)CN1C(C(=O)N[C@H](C(N)=O)[C@@H](C)O)CCC12CNC2=O (single isomer, unassigned) [BB] ... < 1 nM
CC(=O)N1C(C(=O)N[C@H](C(N)=O)[C@@H](C)O)CCC12CNC2=O (stereo partly shown) ... < 1 nM

Here's the next entry for you.
Quick one: EC50 of NC(=O)C1CCC2(CNC2=O)N1Cc1ccc(F)cc1 (single isomer, unassigned) ?
< 1 nM

----------
experiment: IV pharmacokinetics; type: in vivo; settings: rat, in vivo, Sprague Dawley rats, 2 mg/kg, normal saline, read-out: Vss
Endpoint label: Vd (L/kg)
API: value field is a number in L/kg; no unit string.

CC(C)CN1[C@@]2(CC[C@@]13CNC3=O)CNC2=O [Compound AD] ... 0.92
O=C1NCC12CCC1(CNC1=O)N2 (single isomer, unassigned) [AJ] ... 0.47

Here's the next entry for you.
Quick one: Vd of CC(C)CN1[C@]2(CC[C@]13CNC3=O)CNC2=O [Compound AF] ?
0.59

----------
target: NMDAR2A expressing HEK cell membranes (Homo sapiens, UniProt Q12879); construct: expressed in transfected cells; host or cells: HEK cells (membrane extract); assay: NMDAR agonist assay, [3H]MK-801 binding, NMDAR2A; format: biochemical; conditions: 50 μM glutamate; relative to 1 mM glycine
Sequence (Q12879 23-1464, other chains not shown): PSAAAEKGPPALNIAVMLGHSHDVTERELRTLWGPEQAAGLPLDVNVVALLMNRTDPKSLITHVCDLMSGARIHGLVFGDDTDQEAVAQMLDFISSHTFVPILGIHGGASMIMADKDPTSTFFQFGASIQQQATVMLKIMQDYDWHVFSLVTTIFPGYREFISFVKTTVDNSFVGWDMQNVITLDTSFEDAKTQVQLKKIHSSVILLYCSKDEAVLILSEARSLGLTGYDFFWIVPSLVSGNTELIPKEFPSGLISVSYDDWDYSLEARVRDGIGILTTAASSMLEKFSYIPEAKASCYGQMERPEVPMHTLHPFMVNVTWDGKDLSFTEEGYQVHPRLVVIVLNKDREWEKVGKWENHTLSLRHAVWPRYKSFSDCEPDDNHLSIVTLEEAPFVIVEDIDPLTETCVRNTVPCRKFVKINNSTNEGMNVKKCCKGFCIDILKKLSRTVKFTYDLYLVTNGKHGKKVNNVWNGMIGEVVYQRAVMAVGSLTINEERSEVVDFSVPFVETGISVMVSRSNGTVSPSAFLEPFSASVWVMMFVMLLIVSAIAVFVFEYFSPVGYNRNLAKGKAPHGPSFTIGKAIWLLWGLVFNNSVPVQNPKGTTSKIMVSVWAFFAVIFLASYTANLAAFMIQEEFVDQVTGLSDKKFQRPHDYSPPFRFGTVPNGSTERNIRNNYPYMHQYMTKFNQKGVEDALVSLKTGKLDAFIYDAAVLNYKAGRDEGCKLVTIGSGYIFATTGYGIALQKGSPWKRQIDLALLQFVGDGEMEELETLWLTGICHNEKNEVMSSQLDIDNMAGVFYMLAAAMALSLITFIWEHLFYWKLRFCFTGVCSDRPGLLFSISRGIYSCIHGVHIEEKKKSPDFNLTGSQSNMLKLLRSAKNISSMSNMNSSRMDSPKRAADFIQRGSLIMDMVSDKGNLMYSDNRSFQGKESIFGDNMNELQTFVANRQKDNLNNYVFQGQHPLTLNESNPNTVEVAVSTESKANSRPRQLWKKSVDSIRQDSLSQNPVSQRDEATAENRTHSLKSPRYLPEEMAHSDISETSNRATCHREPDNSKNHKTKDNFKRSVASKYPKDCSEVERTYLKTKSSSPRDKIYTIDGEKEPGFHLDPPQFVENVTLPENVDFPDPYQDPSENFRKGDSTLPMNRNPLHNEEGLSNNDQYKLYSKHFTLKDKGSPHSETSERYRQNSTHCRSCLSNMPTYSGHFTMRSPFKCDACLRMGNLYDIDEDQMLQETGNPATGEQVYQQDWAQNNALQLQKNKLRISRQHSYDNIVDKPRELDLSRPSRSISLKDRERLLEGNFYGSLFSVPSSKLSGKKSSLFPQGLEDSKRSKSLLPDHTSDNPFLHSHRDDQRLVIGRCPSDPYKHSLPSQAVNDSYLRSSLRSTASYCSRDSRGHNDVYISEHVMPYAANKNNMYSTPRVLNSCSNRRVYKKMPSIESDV
Endpoint label: NMDAR2A: % maximal [3H]MK-801 binding relative to 1 mM glycine

O=C1NCC12CN(Cc1ccccc1)C1(CNC1=O)C2 (single isomer, unassigned) [DO] ... + (<100%=+)
O=C1NCC12CN(Cc1ccc(F)cc1)C1(CNC1=O)C2 (single isomer, unassigned) [DM] ... + (<100%=+)
O=C1NCC12CN(Cc1ccccc1)C1(CNC1=O)C2 (single isomer, unassigned) [DQ] ... − (−=0)
CC(C)C(=O)N1C2(CCC13CNC3=O)CNC2=O (single isomer, unassigned) [AI] ... + (<100%=+)
CC(O)C(C(N)=O)N(C)CC1CCC2(CN(OCc3ccccc3)C2=O)N1 (single isomer, unassigned) [CS] ... − (−=0)
CC(O)C(C(N)=O)N(C)CC1CCC2(CN(OCc3ccccc3)C2=O)N1 (single isomer, unassigned) [CT] ... + (<100%=+)
CC(O)C(C(N)=O)N(C)CC1CCC2(CNC2=O)N1 (single isomer, unassigned) [CV] ... + (<100%=+)
CC(O)C(C(N)=O)N(C)CC1CCC2(CNC2=O)N1 (single isomer, unassigned) [CU] ... − (−=0)
CC(O)C(NCC1CCC2(CN(OCc3ccccc3)C2=O)N1)C(N)=O (single isomer, unassigned) [CK] ... − (−=0)
C[C@@H](O)[C@H](NC(=O)C1CCC2(CNC2=O)N1Cc1ccccc1)C(N)=O (single isomer, unassigned) [AL-2] ... + (<100%=+)

Quick one: NMDAR2A: % maximal [3H]MK-801 binding relative to 1 mM glycine of C[C@@H](O)[C@H](NC(=O)C1CCC2(CNC2=O)N1C)C(N)=O (single isomer, unassigned) [BD] ?
+ (<100%=+)

Quick one: NMDAR2A: % maximal [3H]MK-801 binding relative to 1 mM glycine of CNC(=O)C(NCC1CCC2(CNC2=O)N1)C(C)O (single isomer, unassigned) [CQ] ?
− (−=0)

Quick one: NMDAR2A: % maximal [3H]MK-801 binding relative to 1 mM glycine of CC(C)(C)OC(=O)N1C(C(N)=O)CCC12CN(OCc1ccccc1)C2=O (single isomer, unassigned) [BH] ?
− (−=0)

Quick one: NMDAR2A: % maximal [3H]MK-801 binding relative to 1 mM glycine of O=C1NCC12CCC1(CNC1=O)N2 (single isomer, unassigned) [AK] ?
− (−=0)

Quick one: NMDAR2A: % maximal [3H]MK-801 binding relative to 1 mM glycine of CC(C)(C)OC(=O)N1C2(CCC13CNC3=O)CNC2=O (single isomer, unassigned) [AA-2] ?
+ (<100%=+)

Quick one: NMDAR2A: % maximal [3H]MK-801 binding relative to 1 mM glycine of CC(O)C(NCC1CCC2(CN(OCc3ccccc3)C2=O)N1)C(N)=O (single isomer, unassigned) [CL] ?
+ (<100%=+)

Quick one: NMDAR2A: % maximal [3H]MK-801 binding relative to 1 mM glycine of C[C@@H](O)[C@H](NCC1CCC2(CN(OCc3ccccc3)C2=O)N1C(=O)OC(C)(C)C)C(=O)N(C)C (single isomer, unassigned) [BR] ?
+ (<100%=+)

Quick one: NMDAR2A: % maximal [3H]MK-801 binding relative to 1 mM glycine of CC(C)C(=O)N1C2(CCC13CNC3=O)CNC2=O (single isomer, unassigned) [AH] ?
+ (<100%=+)
